target_entity: Sodium-dependent dopamine transporter (Rattus norvegicus)
Sequence (P23977 whole entry): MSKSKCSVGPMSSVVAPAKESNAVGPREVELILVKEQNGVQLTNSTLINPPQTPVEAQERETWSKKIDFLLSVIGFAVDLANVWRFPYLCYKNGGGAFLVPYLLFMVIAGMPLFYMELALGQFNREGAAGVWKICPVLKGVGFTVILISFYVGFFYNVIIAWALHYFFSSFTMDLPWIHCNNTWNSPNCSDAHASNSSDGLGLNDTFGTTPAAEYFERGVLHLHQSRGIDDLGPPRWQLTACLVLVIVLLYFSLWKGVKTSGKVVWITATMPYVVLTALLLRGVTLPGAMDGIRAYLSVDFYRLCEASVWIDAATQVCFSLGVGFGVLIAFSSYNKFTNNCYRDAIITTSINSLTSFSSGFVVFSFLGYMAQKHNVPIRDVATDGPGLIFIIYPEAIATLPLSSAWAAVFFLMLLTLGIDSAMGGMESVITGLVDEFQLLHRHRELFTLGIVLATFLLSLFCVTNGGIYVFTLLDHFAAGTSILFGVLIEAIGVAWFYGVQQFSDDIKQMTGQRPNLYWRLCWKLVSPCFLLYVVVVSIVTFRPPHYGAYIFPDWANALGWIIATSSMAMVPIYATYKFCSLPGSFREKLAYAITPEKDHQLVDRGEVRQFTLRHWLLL
Exam item: assign yes (1) to entries whose Ki is below 0.4 µM and no (0) to entries at or above 0.4 µM. Note that a value of exactly 0.4 µM receives no (0).

# example entries with known answers
# compound, group
rows = [
    ("COC(=O)C1C(c2ccc(Cl)cc2)CC2CCC1N2CCCCc1ccc(N=[N+]=[N-])c(I)c1 (stereo unspecified)", "yes (1)"),
    ("CN1C2CCC1C(C(=O)OCCc1ccc(N=[N+]=[N-])c(I)c1)C(c1ccc(Cl)cc1)C2 (stereo unspecified)", "yes (1)"),
    ("Fc1ccc(C(O[C@H]2C[C@H]3CC[C@@H](C2)N3CCCc2ccc(N=C=S)cc2)c2ccc(F)cc2)cc1", "no (0)"),
    ("[N-]=[N+]=Nc1ccc(CCCN2[C@@H]3CC[C@H]2C[C@@H](OC(c2ccc(F)cc2)c2ccc(F)cc2)C3)cc1I", "yes (1)"),
    ("COC(=O)C1C(c2ccc(Cl)cc2)CC2CCC1N2CCCCc1ccc(N=C=S)cc1 (stereo unspecified)", "yes (1)"),
]

Here is another compound to look at.
In: Please check: Ki for Fc1ccc(C(O[C@H]2C[C@H]3CC[C@@H](C2)N3CCCCc2ccc(N=C=S)cc2)c2ccc(F)cc2)cc1 , strictly under 0.4 µM or not?
Out: no (0)

Origin of measurements: ChEMBL document CHEMBL1134308
